Origin of values: patent US20250263370A1

Listed below: half-life at 1 μM values for each entry.
assay: Intrinsic clearance in liver microsomes, rat; format: in vitro ADME; conditions: rat, liver microsomes, pH 7.4, rat liver microsomes, Method 1; read-out: Half-Life (T1/2) (min), Rat
Output spec: scalar in min, unitless text.

| compound | experimental.readout | recorded.result |
| --- | --- | --- |
| CNC(=O)c1[nH]c(C(=O)NC2CCC2)cc1OC(C)c1ccc(Cl)cc1 (single isomer, unassigned) [Example 27] | half-life at 1 μM | 47 |

Alright, here's another compound for you.
For CNC(=O)c1[nH]c(C(=O)NC2CCC2)cc1OC(C)c1ccc(Cl)cc1F (single isomer, unassigned) [Example 35] , what is its reported half-life at 1 μM?
46
